Test system: UO-31 renal
Test: NCI-60 one-dose screen, 48 h (100 = growth as untreated, 0 = no growth, -100 = all killed)
Conditions: 10 µM unless noted
Compounds without any hit were thinned out: in the full panel of roughly 83,000, 20% have a hit.
Cut-off 60% on growth, inclusive. At or above means MET; below means NOT MET.

compoundStructureString: O=C(N/N=C\c1cc(Cl)ccc1O)N/N=C/c1cc(Cl)ccc1O
assayedSystem: UO-31 renal
labelValue: NOT MET

compoundStructureString: COCCCNc1nc(NC(=O)c2cc(OC)cc(OC)c2)cc(-c2cccnc2)n1
assayedSystem: UO-31 renal
labelValue: NOT MET

compoundStructureString: O=c1[nH]c2cc(Cl)c(Cl)cc2n2cc3ncccc3c12
assayedSystem: UO-31 renal
labelValue: NOT MET

compoundStructureString: CCOC(=O)Nc1ccc2c(c1)/C(=N\NC(=S)NC)c1ccccc1-2
assayedSystem: UO-31 renal
labelValue: MET

compoundStructureString: COc1ccc(C(=O)CSc2nnc(-c3cc(-c4ccccc4)nc4ccccc34)o2)cc1
assayedSystem: UO-31 renal
labelValue: MET

---

Measured growth of individual entries
System: MDA-MB-231 breast
Experiment: NCI-60 one-dose screen, 48 h (100 = growth as untreated, 0 = no growth, -100 = all killed)
Details: 10 µM unless noted
Compounds without any hit were thinned out: in the full panel of roughly 83,000, 20% have a hit.
readoutKind: growth (%)

compound: Cn1cc(-c2noc(-c3cn(C)c4ncc(F)cc34)n2)c2ccccc21
numericResult: 55.1
//
compound: c1cc2ccc3cc2cc1CNCCN1CCNCc2ccc4ccc(cc4c2)CNCCN(CCNC3)CCNCc2ccc3ccc(cc3c2)CNCC1
numericResult: -23.7
//
compound: CCN=Cc1c(O)c(O)c(C(C)C)c2cc(C)c(-c3c(C)cc4c(C(C)C)c(O)c(O)c(C=NCC)c4c3O)c(O)c12
numericResult: 50.5
//
compound: O=C1/C(=C\c2cccn2Cc2ccccc2)c2ccccc2N1c1c(Cl)cccc1Cl
numericResult: 28.9
//
compound: O=C1CC(c2ccccc2)Cc2nc3ccc(Br)cc3cc21 (stereo not given)
numericResult: 13.2

---

System: A498 renal
Test: NCI-60 one-dose screen, 48 h
Settings: 10 µM unless noted
This is part of a sample that, as a whole, favours compounds with a hit. Of some 83,000 tested, about 20% had one in any assay. Activity calls are given as the source filed them. How the source made its calls: active means growth percent below 10; inactive means the rest.
Outcomes: TRUE (active), FALSE (inactive)

compound: O=C1COCCN1c1ccc(Nc2nc(Cl)nc(N3CCOCC3)n2)cc1
labelValue: FALSE
--
compound: CCN1c2ccccc2C(Cl)(c2ccc(N(C)C)cc2)c2ccccc21
labelValue: FALSE
--
compound: CC[C@]12C=CCN3CC[C@@]4(c5ccc(OC)cc5N(C)[C@H]4[C@@](O)(C(=O)OC)[C@@H]1OC(=O)CCC(=O)O[C@H]1CC[C@H]4[C@@H]5CCC6=CC(=O)CC[C@@H]6[C@H]5CC[C@]14C)[C@@H]32
labelValue: TRUE
--
compound: O=S(=O)(/N=c1/n(-c2ccccc2)nc2n1CCN2C1=NCCN1)c1ccc(-c2ccccc2)cc1
labelValue: FALSE
--
compound: Cc1cc(C)c(-c2cc(O)c(-c3c(C)cc(C)cc3C)cc2O)c(C)c1
labelValue: TRUE
--
compound: C[C@H]1[C@H](C)CC[C@]2(C(=O)O)CC[C@]3(C)C(=CC[C@@H]4[C@@]5(C)C/C(=C/c6cccnc6)[C@H](O)C(C)(C)[C@@H]5CC[C@]43C)[C@H]12
labelValue: FALSE
--
compound: CCCCCn1sc(=O)n(Cc2ccc(CNC(=O)OCc3ccc4cccc(O)c4n3)cc2)c1=O
labelValue: TRUE
--
compound: O=C(O)c1cc([N+](=O)[O-])ccc1Br
labelValue: FALSE
--
compound: Cn1cc(-c2noc(C(=O)c3cn(C)c4ncccc34)n2)c2ccccc21
labelValue: FALSE
--
compound: COCCCNc1nc(NC(=O)c2cc(OC)cc(OC)c2)cc(-c2cccnc2)n1
labelValue: FALSE
--
compound: CCCCCCCCN(CCCCCCCC)CC(O)c1ccc(Cl)c(C)c1Cl (centres undefined)
labelValue: FALSE
--
compound: COc1cc(NCc2ccccc2O)c2ncccc2c1
labelValue: FALSE
--
compound: CC(=O)CC(=O)SC1=NCCS1
labelValue: FALSE
--
compound: COc1ccc2nc3cc(Cl)ccc3c(Nc3ccc(O)c(CN4CCCC4)c3)c2c1
labelValue: FALSE
--
compound: O=[N+]([O-])c1cccc(N=NNc2cccc([N+](=O)[O-])c2)c1
labelValue: TRUE
--
compound: CCCSc1nc(N)nc2nc[nH]c12
labelValue: FALSE
--
compound: CSc1nc(=S)c2nc(SC)n(-c3ccccc3)c2[nH]1
labelValue: FALSE
--
compound: C=C(C)[C@@H]1CC[C@]2(C(N)=O)CC[C@]3(C)[C@H](CC[C@@H]4[C@@]5(C)CC[C@H](O)C(C)(C)[C@@H]5CC[C@]43C)[C@@H]12
labelValue: TRUE
--
compound: O=C(CSc1nc2ccc([N+](=O)[O-])cc2[nH]1)Nc1cccc(Cl)c1
labelValue: TRUE
